Listed next: entries and their corresponding MIC90, DNA gyrase GyrA, G88C.
System: M. tuberculosis DNA gyrase GyrA, G88C
Assay type: cell-based, Mycobacterium tuberculosis

| compound structure | target entity | units symbol | MIC90, DNA gyrase GyrA, G88C |
| --- | --- | --- | --- |
| C[C@H]1COc2c(N3CCN(C)CC3)c(F)cc3c(=O)c(C(=O)O)cn1c23 | M. tuberculosis DNA gyrase GyrA, G88C | µM | 2.0 |
| CO[C@H]1/C=C/O[C@@]2(C)Oc3c(C)c(O)c4c(O)c(c(/C=N/N5CCN(C)CC5)c(O)c4c3C2=O)NC(=O)/C(C)=C\C=C\[C@H](C)[C@H](O)[C@@H](C)[C@@H](O)[C@@H](C)[C@H](OC(C)=O)[C@@H]1C | M. tuberculosis DNA gyrase GyrA, G88C | µM | 0.0023 |
| COc1c(N2C[C@@H]3CCCN[C@@H]3C2)c(F)cc2c(=O)c(C(=O)O)cn(C3CC3)c12 | M. tuberculosis DNA gyrase GyrA, G88C | µM | 0.49 |
| Cc1nnc(-c2noc3c(F)c4c(cc23)CC2(C(=O)NC(=O)NC2=O)[C@H]2[C@H](C)O[C@H](C)CN42)o1 | M. tuberculosis DNA gyrase GyrA, G88C | µM | 0.98 |
